Values from patent US8513219B2

Listing: amyloid reduction (% controls), 5 day repeated doses of selected molecules
- Tested on: amyloid accumulation in H4 cells
- method: H4 cell amyloid accumulation (6E10 antibody, HRP/OPD absorbance)
- Format: cell-based, human
measure: amyloid reduction (% controls), 5 day repeated doses

molecule: CCOP(=O)(COc1ccccc1-c1nc2ccccc2s1)OCC [Compound 14]
recordedMeasurement: 83
//
molecule: O=P([O-])([O-])Cn1c2ccccc2c2ccccc21.[Na+].[Na+] [Compound 20, Disodium N-carbazolylmethylphosphonate]
recordedMeasurement: 66
//
molecule: CCOP(=O)(COc1ccc2c(c1)[nH]c1ccccc12)OCC [Compound 17, Diethyl-2-carbazolyloxymethylphosphonate]
recordedMeasurement: 62
//
molecule: CCOP(=O)(COc1ccc(NC(C)=O)cc1)OCC [Compound 25]
recordedMeasurement: 62

---

- System: H4 cells (human neuroblastoma cell line)
measure: cell survival (% controls), 5 day single dose

compound: O=P([O-])([O-])Cn1c2ccccc2c2ccccc21.[Na+].[Na+] [Compound 20, Disodium N-carbazolylmethylphosphonate]
unitsText: % controls
recordedMeasurement: 88
//
compound: CCOP(=O)(COc1ccc2c(c1)[nH]c1ccccc12)OCC [Compound 17, Diethyl-2-carbazolyloxymethylphosphonate]
unitsText: % controls
recordedMeasurement: 97
//
compound: CCOP(=O)(COc1ccccc1-c1nc2ccccc2s1)OCC
unitsText: % controls
recordedMeasurement: 100
//
compound: CCOP(=O)(COc1ccc(NC(C)=O)cc1)OCC
unitsText: % controls
recordedMeasurement: 98

---

Lab note: cell survival (% controls), 5 day repeated doses readings collected with H4 cells (human neuroblastoma cell line) for the following molecules.
measure: cell survival (% controls), 5 day repeated doses

molecule: CCOP(=O)(COc1ccc2c(c1)[nH]c1ccccc12)OCC [Compound 17, Diethyl-2-carbazolyloxymethylphosphonate]
recordedMeasurement: 102
//
molecule: CCOP(=O)(COc1ccccc1-c1nc2ccccc2s1)OCC [Compound 14]
recordedMeasurement: 110
//
molecule: CCOP(=O)(COc1ccc(NC(C)=O)cc1)OCC [Compound 25]
recordedMeasurement: 97
//
molecule: O=P([O-])([O-])Cn1c2ccccc2c2ccccc21.[Na+].[Na+] [Compound 20, Disodium N-carbazolylmethylphosphonate]
recordedMeasurement: 72
